# Test system: 786-0
# protocol: NCI tumour cell line growth inhibition, 48 h
Active and inactive are the calls of the source. No stated cut-off is given here; in the data, active = GI50 up to about 1.1 µM and inactive = higher.
Hi! Could you answer with just one of these? active, inactive

Before answering, review these 8 worked examples.
O=[N+]([O-])c1ccc(Sc2c3ccccc3nc3ccccc23)cc1
inactive
CCOC(=O)C1=CCOc2cc(N(C)C)ccc21
inactive
CCCCCC(=O)OC[n+]1ccc(-c2c(COC(=O)NC(C)C)c(COC(=O)NC(C)C)c3n2CCC3)cc1
inactive
CC1=C(O)/C(=C/C(C)CCC/C(C)=C/C=C/C(C)CCCc2ccoc2)OC1=O (centres undefined)
inactive
O=[N+]([O-])c1ccc(NN/N=N/c2ccc(-c3nc4ccccc4s3)cc2)c([N+](=O)[O-])c1
inactive
CCN(CC)CCNc1ccc2ncn3c4ccc(O)cc4c(=O)c1c23
active
CN(C)c1ccc(/C=C2\CCc3ccccc3C2=O)cc1Br
inactive
CC(=O)C1=C(C)N(c2ccccc2)C2(O)C=CC(O)=C3C(=O)c4ccccc4C(=O)C312 (centres undefined)
inactive

Okay, next one:
Hi, do you know how O=C1N(CN2CCOCC2)CN(CN2CCOCC2)C(=O)N1Cc1ccc(CN2C(=O)N(CN3CCOCC3)CN(CN3CCOCC3)C2=O)cc1 came out in this test?
inactive
